target: MOR-TR-PK (Mus musculus, UniProt P42866, DEL387-398); experiment: radioligand saturation binding, CHO membranes
REPORTED_ENDPOINT: Kd (nM)
Write the answer as a number in nM, unit excluded.

// query Consider the compound shown here: O=C(N[C@@H]1CC[C@@]2(O)[C@H]3Cc4ccc(O)c5c4[C@@]2(CCN3CC2CC2)[C@H]1O5)c1cccc(I)c1 [[^125I]IBNtxA] What is its recorded Kd?
// result 0.1

---

target: UniProtKB P42866
REPORTED_ENDPOINT: Kd (nM)
Write the answer as a number in nM, unit excluded.

// query Consider the compound shown here: O=C(N[C@@H]1CC[C@@]2(O)[C@H]3Cc4ccc(O)c5c4[C@@]2(CCN3CC2CC2)[C@H]1O5)c1cccc(I)c1 [[^125I]IBNtxA] What is its recorded Kd?
// result 0.24
